B1: TPR 5TU (parent)
chain: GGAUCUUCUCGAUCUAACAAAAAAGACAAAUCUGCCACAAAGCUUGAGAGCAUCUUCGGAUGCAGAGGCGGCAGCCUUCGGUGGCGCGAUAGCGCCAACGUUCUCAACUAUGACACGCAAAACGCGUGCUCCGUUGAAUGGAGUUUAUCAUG

Variants of: B1
Test: polymerase ribozyme fitness, log enrichment relative to wild type (log ratio); higher = more active; in vitro selection for triplet polymerase activity
Fewer inactive variants are shown than the library holds.
observed_property: polymerase ribozyme fitness (log ratio)

Record excerpt, results attached:
sequence_change="A26U C51U A52U C54G G86U C99A A107C C123G" value="≤ -4.2"
sequence_change="U15A C36U C87U G124U A137C" value=-4.03
sequence_change="U53A G83C C95U A97C G100A C116G" value="≤ -4.2"

Which polymerase ribozyme fitness (log ratio) value belongs to A30U C54A C76A C87G G92A G143C ?
≤ -4.2

Which polymerase ribozyme fitness (log ratio) value belongs to A3U G84A ?
-1.14
